system: SH-SY5Y cells; experiment: Toxicity in neuronal SH-SY5Y cells, MTT assay; assay type: cell-based; conditions: Homo sapiens, read-out: IC50 (concentration resulting in 50% inhibition of neuronal viability), 24 h, 2.5-80 μM
pIC50: −log10 of the molar value.
MEASURED_METRIC: pIC50

1) COc1cc(Cn2cc(C(=O)N/N=C/c3cccc(F)c3)nn2)ccc1O; 4.37
2) COc1cc(Cn2cc(C(=O)N/N=C/c3ccc(N4CCCCC4)cc3)nn2)ccc1O; 4.99
3) COc1cc(Cn2cc(C(=O)N/N=C/c3ccccc3F)nn2)ccc1O; 4.16

====

target: EeAChE (Electrophorus electricus); construct: purified from Electrophorus electricus; test: AChE inhibition, modified Ellman kinetic assay
Sequence (O42275 24-633): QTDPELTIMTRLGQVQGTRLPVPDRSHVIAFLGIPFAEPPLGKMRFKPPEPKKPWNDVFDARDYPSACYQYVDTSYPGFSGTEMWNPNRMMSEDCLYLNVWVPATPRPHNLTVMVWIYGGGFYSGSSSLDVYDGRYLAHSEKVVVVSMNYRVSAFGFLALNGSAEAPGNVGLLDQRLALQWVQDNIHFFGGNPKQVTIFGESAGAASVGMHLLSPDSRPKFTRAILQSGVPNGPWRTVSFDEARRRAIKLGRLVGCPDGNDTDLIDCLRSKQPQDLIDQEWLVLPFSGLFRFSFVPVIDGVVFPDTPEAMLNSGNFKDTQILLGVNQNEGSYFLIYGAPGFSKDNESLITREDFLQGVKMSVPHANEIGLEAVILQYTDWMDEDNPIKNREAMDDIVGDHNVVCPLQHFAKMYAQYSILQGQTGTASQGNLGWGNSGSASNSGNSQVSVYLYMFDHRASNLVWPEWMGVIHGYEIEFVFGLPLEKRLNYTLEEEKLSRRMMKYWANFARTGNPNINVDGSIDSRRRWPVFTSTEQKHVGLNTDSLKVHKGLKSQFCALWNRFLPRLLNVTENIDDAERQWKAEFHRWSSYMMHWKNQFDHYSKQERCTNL
MEASURED_METRIC: IC50

1. COc1cc(/C=N/NC(=O)c2cn(Cc3ccc(O)c(OC)c3)nn2)ccc1O; 26.3 µM

====

test system: SH-SY5Y cells; assay: Toxicity in neuronal SH-SY5Y cells, MTT assay; type: cell-based; settings: Homo sapiens, read-out: IC50 (concentration resulting in 50% inhibition of neuronal viability), 24 h, 2.5-80 μM
MEASURED_METRIC: IC50 (µM)

1. COc1ccc(/C=N/NC(=O)c2cn(Cc3ccc(O)c(OC)c3)nn2)cc1; 10.3
2. COc1cc(Cn2cc(C(=O)N/N=C/c3ccccc3)nn2)ccc1O; 63.8
3. COc1cc(/C=N/NC(=O)c2cn(Cc3ccc(O)c(OC)c3)nn2)cc(OC)c1; 67.7
4. COc1cc(Cn2cc(C(=O)N/N=C/c3cccc(Cl)c3)nn2)ccc1O; 10.4
5. COc1cc(Cn2cc(C(=O)N/N=C/c3ccc(Cl)cc3)nn2)ccc1O; 3.02
6. COc1cc(Cn2cc(C(=O)N/N=C/c3ccccc3Cl)nn2)ccc1O; 28.3
7. COc1cc(Cn2cc(C(=O)N/N=C/c3ccc(F)cc3)nn2)ccc1O; 3.62

====

Each record here notes measured pIC50.
tested on: SH-SY5Y cells; test: Toxicity in neuronal SH-SY5Y cells, MTT assay; type: cell-based; settings: Homo sapiens, read-out: IC50 (concentration resulting in 50% inhibition of neuronal viability), 24 h, 2.5-80 μM
pIC50: −log10 of the molar value.
MEASURED_METRIC: pIC50

1. COc1cc(Cn2cc(C(=O)N/N=C/c3cc(O)cc(O)c3)nn2)ccc1O; < 4.10
2. COc1cc(/C=N/NC(=O)c2cn(Cc3ccc(O)c(OC)c3)nn2)ccc1O; < 4.10
3. COc1cc(Cn2cc(C(=O)N/N=C/c3ccc(O)cc3)nn2)ccc1O; < 4.10

Value source: paper PMC7397262
